The measured values listed here are drawn from patent US20250214986A1.

assay-info: Solid state stability (XRPD and HPLC)
Type: physicochemical
condition-set: 60° C./sealed, 1 day
Structures can show the parent of a compound that is named as a salt.
Recorded HPLC Purity (area %) values for a group of molecules are listed next.

{"molecule": "Cc1cnc(-c2cc(O[C@@H](C)[C@@H](C)O)cc(C(=O)N[C@H](C)c3cnc(C(F)(F)F)nc3)c2F)s1 [Free base crystalline form A]", "u": "area %", "HPLC Purity (area %)": 99.44}
{"molecule": "Cc1cnc(-c2cc(O[C@@H](C)[C@@H](C)O)cc(C(=O)N[C@H](C)c3cnc(C(F)(F)F)nc3)c2F)s1 [Crystalline form A of p-toluenesulfonate]", "u": "area %", "HPLC Purity (area %)": 99.92}
{"molecule": "Cc1cnc(-c2cc(O[C@@H](C)[C@@H](C)O)cc(C(=O)N[C@H](C)c3cnc(C(F)(F)F)nc3)c2F)s1 [Crystalline form A of maleate]", "u": "area %", "HPLC Purity (area %)": 99.60}
{"molecule": "Cc1cnc(-c2cc(O[C@@H](C)[C@@H](C)O)cc(C(=O)N[C@H](C)c3cnc(C(F)(F)F)nc3)c2F)s1 [Crystalline form A of hydrochloride]", "u": "area %", "HPLC Purity (area %)": 99.58}
